These data points were gathered from patent US20240316207A1.

Biological target: SHP2 (Homo sapiens)
Construct: endogenous in cells; host or cells: MV411 (MV4-11) leukemia cells
Sequence (Q06124 1-593): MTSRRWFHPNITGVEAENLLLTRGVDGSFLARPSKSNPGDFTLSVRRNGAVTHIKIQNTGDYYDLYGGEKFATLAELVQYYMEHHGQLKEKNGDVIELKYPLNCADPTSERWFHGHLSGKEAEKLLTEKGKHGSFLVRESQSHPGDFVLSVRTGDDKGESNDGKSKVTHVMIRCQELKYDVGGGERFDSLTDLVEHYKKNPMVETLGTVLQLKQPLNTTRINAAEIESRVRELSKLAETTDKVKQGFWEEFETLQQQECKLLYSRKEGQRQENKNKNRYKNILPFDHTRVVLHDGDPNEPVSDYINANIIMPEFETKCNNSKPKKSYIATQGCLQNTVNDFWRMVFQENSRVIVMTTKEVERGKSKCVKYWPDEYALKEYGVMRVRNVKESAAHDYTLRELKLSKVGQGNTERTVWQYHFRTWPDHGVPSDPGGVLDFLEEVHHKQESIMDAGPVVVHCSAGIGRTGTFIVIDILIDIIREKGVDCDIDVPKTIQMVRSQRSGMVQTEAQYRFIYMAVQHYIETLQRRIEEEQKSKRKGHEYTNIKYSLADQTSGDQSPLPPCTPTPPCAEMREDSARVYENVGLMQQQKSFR
Experiment: SHP2 degradation in MV411 cells (Western blot, SHP-2 antibody)
Format: cell-based
Details: MV 411 cells, 24 hours with compound, SHP2 protein level by Western blot
Parameter Measured: DC50 (nM)

| Molecule | Experimental Target | Parameter Measured | Meas Value |
| --- | --- | --- | --- |
| CCOc1cc(O)c(C(=O)/C=C/c2ccc(NCCOCCOCCOc3cccc4c3C(=O)N(C3CCC(=O)NC3=O)C4=O)cc2Cl)cc1CN1CCC[C@H]1COC (some centres unmarked) | SHP2 (Homo sapiens) | DC50 | 183 |
| CCOc1cc(O)c(C(=O)/C=C/c2ccc(NCCOCCOCCOCCNc3cccc4c3C(=O)N(C3CCC(=O)NC3=O)C4=O)cc2Cl)cc1CN1CCC[C@H]1C(N)=O (some centres unmarked) | SHP2 (Homo sapiens) | DC50 | 128 |

P = C=C/C(OCCOCCOCCN1CCN(c2ccc(/C=C/C(=O)c3cc(CN4CCC[C@H]4COC)c(OCC)cc3O)c(Cl)c2)CC1)=C1\C(=C)C(=O)N(C2CCC(=O)NC2=O)C1=O (some centres unmarked)
Q = CCOc1cc(O)c(C(=O)/C=C/c2ccc(N3CCN(CCOCCOCCOc4cccc5c4C(=O)N(C4CCC(=O)NC4=O)C5=O)CC3)cc2Cl)cc1CN1CCC[C@H]1C(N)=O (some centres unmarked)
R = CCOc1cc(O)c(C(=O)/C=C/c2ccc(NCCOCCOCCNc3cccc4c3C(=O)N(C3CCC(=O)NC3=O)C4=O)cc2Cl)cc1CN1CCOCC1 (centres unmarked)
Parameters: sort_field (DC50), sort_dir (desc). Write the labels out in the order the request specifies. R, P, Q
